- PROTOCOL_DESCRIPTION: Antiaggregatory effect against arachidonic acid induced platelet aggregation from the human platelet rich plasma(PRP) in the presence of oxyheamoglobin(HbO2, 40 uM)
- Assay type: functional
RECORDED_ENDPOINT: pIC50
Please keep in mind that pIC50 is minus log10 of the molar concentration; only the number is needed.

Request: Report pIC50 for CC(C)Cc1ccc(C(C)C(=O)OCCCOc2no[n+]([O-])c2S(=O)(=O)c2ccccc2)cc1 (stereo unspecified) please.
Response: 5.57

Recorded values, source ChEMBL document CHEMBL1134631.
